Target: ABCC6 WT (Homo sapiens)
Sequence (O95255 whole entry): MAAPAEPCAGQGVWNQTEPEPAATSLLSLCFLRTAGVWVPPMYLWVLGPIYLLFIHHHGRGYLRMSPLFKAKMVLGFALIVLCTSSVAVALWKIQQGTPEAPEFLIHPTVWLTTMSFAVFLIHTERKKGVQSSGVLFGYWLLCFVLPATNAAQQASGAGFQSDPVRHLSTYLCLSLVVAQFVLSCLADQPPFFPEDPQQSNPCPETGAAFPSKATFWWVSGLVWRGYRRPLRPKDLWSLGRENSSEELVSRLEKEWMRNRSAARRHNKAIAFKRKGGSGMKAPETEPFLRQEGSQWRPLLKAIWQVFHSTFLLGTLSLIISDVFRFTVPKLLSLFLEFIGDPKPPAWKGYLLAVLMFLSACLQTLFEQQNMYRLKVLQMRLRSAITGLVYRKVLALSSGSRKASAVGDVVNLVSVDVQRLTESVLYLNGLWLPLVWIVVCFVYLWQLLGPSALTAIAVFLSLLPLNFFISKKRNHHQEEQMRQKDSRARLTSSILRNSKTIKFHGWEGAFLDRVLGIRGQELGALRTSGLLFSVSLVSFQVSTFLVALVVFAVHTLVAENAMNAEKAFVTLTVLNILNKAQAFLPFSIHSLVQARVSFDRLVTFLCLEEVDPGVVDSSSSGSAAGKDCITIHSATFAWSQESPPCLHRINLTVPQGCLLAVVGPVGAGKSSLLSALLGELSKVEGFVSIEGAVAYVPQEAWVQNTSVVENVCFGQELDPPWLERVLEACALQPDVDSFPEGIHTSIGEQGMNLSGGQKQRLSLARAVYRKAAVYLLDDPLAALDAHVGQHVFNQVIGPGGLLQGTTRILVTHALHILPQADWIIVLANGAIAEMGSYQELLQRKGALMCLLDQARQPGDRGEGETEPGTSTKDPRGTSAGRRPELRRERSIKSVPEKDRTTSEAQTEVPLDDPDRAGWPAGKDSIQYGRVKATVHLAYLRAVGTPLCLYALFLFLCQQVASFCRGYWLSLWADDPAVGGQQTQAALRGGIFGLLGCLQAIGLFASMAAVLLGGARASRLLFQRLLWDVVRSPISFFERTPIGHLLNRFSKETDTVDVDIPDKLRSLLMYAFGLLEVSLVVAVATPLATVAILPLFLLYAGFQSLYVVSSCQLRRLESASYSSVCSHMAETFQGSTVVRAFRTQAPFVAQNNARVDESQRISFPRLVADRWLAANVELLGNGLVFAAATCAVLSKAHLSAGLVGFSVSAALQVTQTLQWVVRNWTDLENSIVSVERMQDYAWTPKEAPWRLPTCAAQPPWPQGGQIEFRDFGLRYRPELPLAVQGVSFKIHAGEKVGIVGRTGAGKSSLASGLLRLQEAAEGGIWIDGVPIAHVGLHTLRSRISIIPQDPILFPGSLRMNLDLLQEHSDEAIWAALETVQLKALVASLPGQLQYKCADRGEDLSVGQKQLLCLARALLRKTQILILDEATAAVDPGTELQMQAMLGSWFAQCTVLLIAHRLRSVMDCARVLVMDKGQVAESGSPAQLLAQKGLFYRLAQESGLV
Test: ABCC6 WT assay: HiBit protein expression
Conditions: HEK-293 cells transiently expressing HiBit-tagged ABCC6 WT; 24 h treatment; top concentration 20 μM; read-out: ABCC6 WT EC50, Emax
Protocol: To assess activity against ABCC6, compounds were screened in an assay measuring protein expression, using cells transfected with cDNA encoding HiBit-tagged ABCC6 wild-type. […] Dose response curves include ten doses with the top final concentration at 20 μM in 0.15% DMSO. […] The plates are rotated at room temperature for 10 minutes and luminescent signal is acquired using an EnVision Multimode Plate Reader (PerkinElmer). […]
// reported EC50 per item

Would you please look over these solved cases?
Cc1cc(C)c(Oc2nc(-c3cncc(C#N)c3)ncc2NS(C)(=O)=O)c(C)c1 = < 1 µM
Cc1cc(C)c(Oc2nc(-c3cncc(Cl)c3)ccc2NS(C)(=O)=O)c(C2CC2)c1 = < 1 µM
Cc1cc(C)c(Oc2nc(-c3cncc(Cl)c3)ccc2NS(=O)(=O)C(C)(C)C)c(C)c1 = ≥ 25 µM
Cc1cc(C)c(Oc2nc(-c3cncc(Cl)c3)ccc2NS(=O)(=O)C2CC2)c(C)c1 = < 1 µM
Cc1cc(C)c(Oc2nc(-n3cnc(C#N)c3)ccc2NS(C)(=O)=O)c(C)c1 = < 1 µM

Q: What reported EC50 corresponds to `Cc1cc(C)c(Oc2nc(-c3cncc(S(C)(=O)=O)c3)ccc2NS(C)(=O)=O)c(C)c1` on ABCC6 WT (Homo sapiens)?
Result: 1 to 10 µM

Q: Please state recorded EC50 (tested on ABCC6 WT (Homo sapiens)) of `Cc1cc(C)c(Oc2nc(-c3cncc(Cl)c3)ccc2N(C)S(=O)(=O)c2cccnc2)c(C)c1`
Result: < 1 µM

Q: Find EC50 (ABCC6 WT (Homo sapiens)) for the entry `Cc1cc(OC(F)(F)F)nc(C)c1Oc1nc(-c2cncc(C#N)c2)ccc1NS(C)(=O)=O`
Result: < 1 µM

Q: Form entry - test system: ABCC6 WT (Homo sapiens); read-out: EC50; compound: `Cc1cc(C)c(Oc2nc(-c3cncc(Cl)c3)ccc2S(N)(=O)=O)c(C)c1`
Result: < 1 µM

Q: Entry `Cc1cc(C2CC2)c(Oc2nc(-c3cncc(C#N)c3)ccc2NS(C)(=O)=O)c(C)n1` , system ABCC6 WT (Homo sapiens): what EC50 was measured?
Result: < 1 µM

Q: Form field: EC50 recorded for `CCCS(=O)(=O)Nc1ccc(-c2cncc(C#N)c2)nc1Oc1c(C)cc(C)nc1C` with ABCC6 WT (Homo sapiens) (enter value)
Result: < 1 µM

Q: // map `Cc1cc(C)c(Oc2nc(-c3cncc(C#N)c3)ccc2NS(=O)(=O)C(C)C)c(C)n1` to recorded EC50 (system: ABCC6 WT (Homo sapiens))
Result: < 1 µM

Where these numbers come from: patent US20250228835A1
